System: HAB1
Test: Yeast two hybrid of pBD-PYR1 site saturation mutants with pACT-HAB1 on 10 μM ABA, β-galactosidase staining
Format: cell-based, Arabidopsis
Design: key: x: Mutations in PYR1 that disrupt ABA-induced binding to PYR1 to HAB1
Details: S. cerevisiae Y190, 10 μM ABA; dead = lack of visible staining in comparison to wild type control
READOUT LABEL: Mutations in PYR1 that disrupt ABA-induced binding to PYR1 to HAB1

| MOLECULE | ENDPOINT VALUE |
| --- | --- |
| G86P: PYR1 mutant (protein, UniProt O49686 1-191, looked up, variant G86P) Abscisic acid receptor PYR1: MPSELTPEERSELKNSIAEFHTYQLDPGSCSSLHAQRIHAPPELVWSIVRRFDKPQTYKHFIKSCSVEQNFEMRVGCTRDVIVISPLPANTSTERLDILDDERRVTGFSIIGGEHRLTNYKSVTTVHRFEKENRIWTVVLESYVVDMPEGNSEDDTRMFADTVVKLNLQKLATVAEAMARNSGDGSGSQVT | x |
| A89P: PYR1 mutant (protein, UniProt O49686 1-191, looked up, variant A89P) Abscisic acid receptor PYR1: MPSELTPEERSELKNSIAEFHTYQLDPGSCSSLHAQRIHAPPELVWSIVRRFDKPQTYKHFIKSCSVEQNFEMRVGCTRDVIVISGLPPNTSTERLDILDDERRVTGFSIIGGEHRLTNYKSVTTVHRFEKENRIWTVVLESYVVDMPEGNSEDDTRMFADTVVKLNLQKLATVAEAMARNSGDGSGSQVT | x |

Measured values drawn from patent US10919943B2 for this set.
